- Target System: T1, SNTA1, Q13424
- T1 sequence (Q13424 82-180, limits assumed, looked up): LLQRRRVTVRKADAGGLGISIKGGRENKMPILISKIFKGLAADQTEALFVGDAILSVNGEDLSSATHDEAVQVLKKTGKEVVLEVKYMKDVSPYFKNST
- Assay Details: holdup assay
- Parameters: key: below the threshold = too weak to quantify, mostly under pKd 3.1 to 4
- Stated Conditions: plain residues with an end cap or a label only (N-terminal biotin on a linker: ado-ado)

# Binder, pKd
data = [
    ("QSARLWETSI [ADAM22, Q9P0K1]", 4.49),
    ("LPHPHSTTRV [NLGN2, Q8NFZ4]", 4.18),
    ("SKENVQETQI [LRRC4B, Q9NT99]", 4.77),
    ("KKMPSIESDV [GRIN2A, Q12879]", 4.59),
    ("TKGPRGPTRV [SAPCD1, Q5SSQ6]", 4.39),
    ("ETQVTAETVI [TMEM225B, P0DP42]", 4.68),
    ("PPYRHRNTVV [ERBB4, Q15303]", 5.32),
    ("SGSLKLMTTV [DACT1, Q9NYF0]", 3.49),
    ("QGPVETESVV [SLC45A4, Q5BKX6]", 4.93),
    ("TACCHSETVV [TGFA, P01135]", 5.04),
]
